Recorded measurements of growth inhibition rate (%) on Vero cells, one per entry
test system: Vero cells; test: Cytotoxic assay of tested drugs against Vero cells (CCK-8); type: cell-based, African green monkey; conditions: 7th concentration, 50% serial dilution from column-head concentration; 72 h
Marks after values point to notes of the source that are not given here.

Name the reported growth inhibition rate (%) on Vero cells value associated with the compound `COc1c(O)c(Cc2c(O)c(OC)c(O)c3c(=O)c(-c4ccc(O)c(S(=O)(=O)[O-])c4)coc23)c2occ(-c3ccc(O)c(S(=O)(=O)[O-])c3)c(=O)c2c1O.[Na+].[Na+]` −12.11%

Name the reported growth inhibition rate (%) on Vero cells value associated with the compound `CCOc1ccc(-c2coc3cc(OCC)c(OC)c(O)c3c2=O)cc1S(=O)(=O)[O-].[Na+]` 25.55** %

***
Name the reported growth inhibition rate (%) on Vero cells value associated with the compound COc1c(O)cc2occ(-c3ccc(O)c(S(=O)(=O)[O-])c3)c(=O)c2c1O.[Na+] [Compound 1, sodium tectorigenin-5′-sulphonate] 27.14** %

Name the reported growth inhibition rate (%) on Vero cells value associated with the compound `CCOc1ccc(-c2coc3c(Cc4c(OCC)c(OC)c(O)c5c(=O)c(-c6ccc(OCC)c(S(=O)(=O)[O-])c6)coc45)c(OCC)c(OC)c(O)c3c2=O)cc1S(=O)(=O)[O-].[Na+].[Na+]` 14.94** %
